- Test system: Staphylococcus aureus
- test_method_notes: Ratio of MBC to MIC for methicillin-resistant Staphylococcus aureus PU20 expressing constitutive ermC
- Format: functional
property: Ratio
Respond numerically, and do not add a unit to the figure.

{"columns": ["smiles_representation", "measured_value"],
 "data": [
  ["CC[C@H]1OC(=O)[C@@](C)(F)C(=O)[C@H](C)[C@@H](O[C@@H]2O[C@H](C)C[C@H](N(C)C)[C@H]2O)[C@](C)(OC)C[C@@H](C)/C(=N\\OCC#Cc2cncc3ccccc23)[C@H](C)[C@H]2OC(=O)O[C@@]21C", 4]
]}

Now consider a different molecule.
Value wanted: Ratio (Staphylococcus aureus) of entry CC[C@H]1OC(=O)[C@@](C)(F)C(=O)[C@H](C)[C@@H](O[C@@H]2O[C@H](C)C[C@H](N(C)C)[C@H]2O)[C@](C)(OC)C[C@@H](C)/C(=N\OC/C=C/c2cnc3ccccc3c2)[C@H](C)[C@H]2OC(=O)O[C@@]21C
4

====

- System: Streptococcus pneumoniae
- test_method_notes: Bactericidal activity against penicillin-susceptible Streptococcus pneumoniae PU09 incubated for 20 to 24 hrs followed by sub-culturing for 24 hrs in absence of compound
- Format: functional
property: MBC (µg/mL)
Write the answer as a number in µg/mL, unit excluded.

# annotated cases, reported MBC shown
{"columns": ["smiles_representation", "property", "unit_tag", "measured_value"],
 "data": [
  ["CC[C@H]1OC(=O)[C@@](C)(F)C(=O)[C@H](C)[C@@H](O[C@@H]2O[C@H](C)C[C@H](N(C)C)[C@H]2O)[C@](C)(OC)C[C@@H](C)/C(=N\\OCC#Cc2cncc3ccccc23)[C@H](C)[C@H]2OC(=O)O[C@@]21C", "MBC", "µg/mL", 1],
  ["CC[C@H]1OC(=O)[C@@](C)(F)C(=O)[C@H](C)[C@@H](O[C@@H]2O[C@H](C)C[C@H](N(C)C)[C@H]2O)[C@](C)(OC)C[C@@H](C)/C(=N\\OC/C=C/c2cncc(N)c2)[C@H](C)[C@H]2OC(=O)O[C@@]21C", "MBC", "µg/mL", 1],
  ["CC[C@H]1OC(=O)[C@@](C)(F)C(=O)[C@H](C)[C@@H](O[C@@H]2O[C@H](C)C[C@H](N(C)C)[C@H]2O)[C@](C)(OC)C[C@@H](C)/C(=N\\OC/C=C/c2ccc3ncccc3c2)[C@H](C)[C@H]2OC(=O)O[C@@]21C", "MBC", "µg/mL", 1],
  ["CC[C@H]1OC(=O)[C@H](C)[C@@H](OC(=O)Cc2ccccn2)[C@H](C)[C@@H](O[C@@H]2O[C@H](C)C[C@H](N(C)C)[C@H]2O)[C@](C)(OC)C[C@@H](C)/C(=N\\OC)[C@H](C)[C@H]2OC(=O)O[C@@]21C", "MBC", "µg/mL", 1],
  ["CC[C@H]1OC(=O)[C@H](C)[C@H](OC(=O)Cc2ccccn2)[C@H](C)[C@@H](O[C@@H]2O[C@H](C)C[C@H](N(C)C)[C@H]2O)[C@@](C)(OC/C=C/c2cnc3ccccc3c2)C[C@@H](C)/C(=N\\O)[C@H](C)[C@H]2OC(=O)O[C@@]21C", "MBC", "µg/mL", 16]
]}

MBC lookup needed for CC[C@H]1OC(=O)[C@H](C)C(=O)[C@H](C)[C@@H](O[C@@H]2O[C@H](C)C[C@H](N(C)C)[C@H]2O)[C@](C)(OC)C[C@@H](C)/C(=N\OCC#Cc2cncc3ccccc23)[C@H](C)[C@H]2OC(=O)O[C@@]21C , thanks.
0.5

Consider the compound shown here: CC[C@H]1OC(=O)[C@@](C)(F)C(=O)[C@H](C)[C@@H](O[C@@H]2O[C@H](C)C[C@H](N(C)C)[C@H]2O)[C@](C)(OC)C[C@@H](C)/C(=N\OC/C=C/c2cnc3ccccc3c2)[C@H](C)[C@H]2OC(=O)O[C@@]21C What is its recorded MBC?
1

Given CC[C@H]1OC(=O)[C@H](C)C(=O)[C@H](C)[C@@H](O[C@@H]2O[C@H](C)C[C@H](N(C)C)[C@H]2O)[C@](C)(OC)C[C@@H](C)/C(=N\OC/C=C/c2cnc3ccccc3c2)[C@H](C)[C@H]2OC(=O)O[C@@]21C , state its recorded MBC.
0.5

// lookup MBC for C#CCN(C)[C@H]1C[C@@H](C)O[C@@H](O[C@@H]2[C@@H](C)C(=O)[C@@H](C)C(=O)O[C@H](CC)[C@@]3(C)OC(=O)O[C@@H]3[C@@H](C)/C(=N/OC/C=C/c3cnc4ccccc4c3)[C@H](C)C[C@@]2(C)OC)[C@@H]1O
4

Requested read-out: MBC. Entry: C=CCN(C)[C@H]1C[C@@H](C)O[C@@H](O[C@@H]2[C@@H](C)C(=O)[C@@H](C)C(=O)O[C@H](CC)[C@@]3(C)OC(=O)O[C@@H]3[C@@H](C)/C(=N/OC/C=C/c3cnc4ccccc4c3)[C@H](C)C[C@@]2(C)OC)[C@@H]1O
0.5

So what's the measured MBC for this one? CC[C@H]1OC(=O)[C@@](C)(F)C(=O)[C@H](C)[C@@H](O[C@@H]2O[C@H](C)C[C@H](N(C)C)[C@H]2O)[C@](C)(OC)C[C@@H](C)/C(=N\OC/C=C/c2cncc(C(N)=O)c2)[C@H](C)[C@H]2OC(=O)O[C@@]21C
0.5

Entry under review: CC[C@H]1OC(=O)[C@H](C)[C@@H](O[C@H]2C[C@@](C)(OC)[C@@H](O)[C@H](C)O2)[C@H](C)[C@@H](O[C@@H]2O[C@H](C)C[C@H](N(C)C)[C@H]2O)[C@](C)(OC)C[C@@H](C)C(=O)[C@H](C)[C@@H](O)[C@]1(C)O . Reported MBC?
8

====

- System: Staphylococcus aureus
- test_method_notes: Ratio of MBC to MIC for methicillin-resistant Staphylococcus aureus PU20 expressing constitutive ermC
- Type: functional
property: Ratio
Answer with the value's number alone.

Take a look at these entries with their results.
{"columns": ["smiles_representation", "Ratio"],
 "data": [
  ["CC[C@H]1OC(=O)[C@@](C)(F)C(=O)[C@H](C)[C@@H](O[C@@H]2O[C@H](C)C[C@H](N(C)C)[C@H]2O)[C@](C)(OC)C[C@@H](C)/C(=N\\OC/C=C/c2ccc3ncccc3c2)[C@H](C)[C@H]2OC(=O)O[C@@]21C", 2],
  ["CC[C@H]1OC(=O)[C@H](C)C(=O)[C@H](C)[C@@H](O[C@@H]2O[C@H](C)C[C@H](N(C)C)[C@H]2O)[C@](C)(OC)C[C@@H](C)/C(=N\\OC/C=C/c2cnc3ccccc3c2)[C@H](C)[C@H]2OC(=O)O[C@@]21C", 1]
]}

// next entry
// lookup Ratio for CC[C@H]1OC(=O)[C@H](C)C(=O)[C@H](C)[C@@H](O[C@@H]2O[C@H](C)C[C@H](N(C)C)[C@H]2O)[C@](C)(OC)C[C@@H](C)/C(=N\OCC#Cc2cncc3ccccc23)[C@H](C)[C@H]2OC(=O)O[C@@]21C
2

====

- Tested on: Streptococcus pneumoniae
- test_method_notes: Bacteriostatic activity against […] Streptococcus pneumoniae ATCC 49619 after 20 to 24 hrs by two-fold microbroth dilution method
- Type: functional
MIC values by entry

Solved entries:
{"columns": ["smiles_representation", "MIC"],
 "data": [
  ["CC[C@H]1OC(=O)[C@@](C)(F)C(=O)[C@H](C)[C@@H](O[C@@H]2O[C@H](C)C[C@H](N(C)C)[C@H]2O)[C@](C)(OC)C[C@@H](C)/C(=N\\OC/C=C/c2cnc3ccccc3c2)[C@H](C)[C@H]2OC(=O)O[C@@]21C", "≤ 0.008 µg/mL"],
  ["C=CCN(C)[C@H]1C[C@@H](C)O[C@@H](O[C@@H]2[C@@H](C)C(=O)[C@@H](C)C(=O)O[C@H](CC)[C@@]3(C)OC(=O)O[C@@H]3[C@@H](C)/C(=N/OC/C=C/c3cnc4ccccc4c3)[C@H](C)C[C@@]2(C)OC)[C@@H]1O", "0.062 µg/mL"]
]}

Query: MIC; subject: CC[C@H]1OC(=O)[C@@](C)(F)C(=O)[C@H](C)[C@@H](O[C@@H]2O[C@H](C)C[C@H](N(C)C)[C@H]2O)[C@](C)(OC)C[C@@H](C)/C(=N\OC/C=C/c2cncc(C(N)=O)c2)[C@H](C)[C@H]2OC(=O)O[C@@]21C
0.062 µg/mL

Item CC[C@H]1OC(=O)[C@H](C)[C@H](OC(=O)Cc2ccccn2)[C@H](C)[C@@H](O[C@@H]2O[C@H](C)C[C@H](N(C)C)[C@H]2O)[C@](C)(OC)C[C@@H](C)/C(=N\OC)[C@H](C)[C@H]2OC(=O)O[C@@]21C has what recorded MIC?
> 64 µg/mL

Sourced from ChEMBL document CHEMBL4004878
